Numbers sourced from BindingDB's records for doi:10.1124/mol.112.080291.

pKi: −log10 of the molar value.
Reported pKi for target or system 5-hydroxytryptamine receptor 3A (Mus musculus), by entry.

| compound | result |
| --- | --- |
| Cc1cc(C)nc(SCCCc2cn([C@@H]3C[C@H]4CC[C@@H](C3)[N+]4(C)C)nn2)n1 [21q] | < 4.52 |
| CN1[C@@H]2CC[C@H]1C[C@H](n1cc(COc3ccccc3-c3ccno3)nn1)C2 [14t] | < 4.52 |
| C[N+]1(C)[C@@H]2CC[C@H]1C[C@H](n1cc(COc3cccc(C#N)c3)nn1)C2 | < 4.52 |
| CN1CC=C(OCc2cnnn2C2CC3CCC(C2)[N+]3(C)C)c2ccccc21 (stereo not drawn) | 6.05 |
| O=c1cc(OCc2cnnn2CC[N+]23CCC(CC2)CC3)c2ccccc2[nH]1 | < 4.52 |

Write pKi of C[N+]1(C)[C@@H]2CC[C@H]1C[C@H](n1cc(CNC(=O)c3ccco3)nn1)C2 [12q] ; system used: 5-hydroxytryptamine receptor 3A (Mus musculus)
Sequence (P23979 as listed by the source): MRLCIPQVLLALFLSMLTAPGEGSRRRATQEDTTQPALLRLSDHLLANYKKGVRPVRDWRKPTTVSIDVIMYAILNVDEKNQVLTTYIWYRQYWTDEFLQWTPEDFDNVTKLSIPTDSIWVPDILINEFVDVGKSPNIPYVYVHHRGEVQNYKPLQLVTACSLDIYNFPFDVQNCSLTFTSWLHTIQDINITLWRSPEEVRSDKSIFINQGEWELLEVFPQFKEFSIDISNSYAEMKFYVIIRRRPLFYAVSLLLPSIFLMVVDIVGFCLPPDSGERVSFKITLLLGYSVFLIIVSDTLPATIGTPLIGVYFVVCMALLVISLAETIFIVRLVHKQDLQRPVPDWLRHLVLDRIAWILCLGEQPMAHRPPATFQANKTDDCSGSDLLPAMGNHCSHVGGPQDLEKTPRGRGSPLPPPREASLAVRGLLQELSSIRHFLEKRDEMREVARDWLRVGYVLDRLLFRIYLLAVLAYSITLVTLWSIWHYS
< 4.52

Write pKi of CC(=O)c1c(OCc2cn([C@@H]3C[C@H]4CC[C@@H](C3)N4C)nn2)ccc2ccccc12 [22t] ; system used: 5-hydroxytryptamine receptor 3A (Mus musculus)
4.92

Write pKi of COc1ccc(C=O)c(OCc2cn([C@@H]3C[C@H]4CC[C@@H](C3)[N+]4(C)C)nn2)c1 [13q] ; system used: 5-hydroxytryptamine receptor 3A (Mus musculus)
< 4.52

* * *

# measured on: Acetylcholine-binding protein (Lymnaea stagnalis, UniProt P58154)
# Sequence (P58154 whole entry): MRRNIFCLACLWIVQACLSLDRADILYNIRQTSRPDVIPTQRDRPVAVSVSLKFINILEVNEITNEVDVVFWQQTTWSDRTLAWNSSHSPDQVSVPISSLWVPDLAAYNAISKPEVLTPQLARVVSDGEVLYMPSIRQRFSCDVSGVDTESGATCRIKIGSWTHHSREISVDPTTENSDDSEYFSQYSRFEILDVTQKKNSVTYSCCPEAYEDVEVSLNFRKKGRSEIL
# protocol text: Synthesizing Selective Agonists for the ?7 Nicotinic Receptor with in situ Click-Chemistry on Acetylcholine Binding Protein Templates.
# condition parameters: pH 7.4; 20 °C
Consider the following molecules and their measured Ki readings.
Please state the figure in nM; there is no need to write the unit.

Before answering, review these 3 worked examples.
| molecule | reported endpoint | quantitative result |
| --- | --- | --- |
| C[N+]1(C)[C@@H]2CC[C@H]1C[C@H](n1cc(C3(O)c4ccccc4-c4ccccc43)nn1)C2 [20q] | Ki | 50 |
| Cn1c(=O)cc(OCc2cnnn2CCC[N+]2(C)CCCC2)c2ccccc21 | Ki | 600 |
| CN1[C@@H]2CC[C@H]1C[C@H](n1cc(CSc3nc4ccccc4s3)nn1)C2 [15t] | Ki | 40 |

Note Ki for the molecule shown: CCC[N+](C)(C)CCn1nncc1COc1cc(=O)n(C)c2ccccc12
40

Note Ki for the molecule shown: COc1ccc(C=O)c(OCc2cn([C@@H]3C[C@H]4CC[C@@H](C3)[N+]4(C)C)nn2)c1 [13q]
20

Note Ki for the molecule shown: C[N+]1(C)[C@@H]2CC[C@H]1C[C@H](n1cc(CSc3nc4ccccc4s3)nn1)C2 [15q]
4

Note Ki for the molecule shown: CN1CC=C(OCc2cnnn2C2CC3CCC(C2)[N+]3(C)C)c2ccccc21 (configuration not stated)
2

Note Ki for the molecule shown: CN1[C@@H]2CC[C@H]1C[C@H](n1cc(COc3ccccc3C3CCCC3)nn1)C2 [18t]
30

Note Ki for the molecule shown: CC(=O)NCc1cn([C@@H]2C[C@H]3CC[C@@H](C2)N3C)nn1 [10t]
900

Note Ki for the molecule shown: CN1[C@@H]2CC[C@H]1C[C@H](n1cc(-c3cc(C(F)(F)F)cc(C(F)(F)F)c3)nn1)C2 [17t]
600

* * *

Consider the following molecules and their measured Ki readings.
# measured on: Acetylcholine-binding protein (Lymnaea stagnalis, UniProt P58154)
# protocol text: Synthesizing Selective Agonists for the ?7 Nicotinic Receptor with in situ Click-Chemistry on Acetylcholine Binding Protein Templates.
# condition parameters: pH 7.4; 20 °C
Please state the figure in µM; there is no need to write the unit.

| molecule | quantitative result |
| --- | --- |
| CC(=O)c1c(OCc2cn([C@@H]3C[C@H]4CC[C@@H](C3)N4C)nn2)ccc2ccccc12 [22t] | 0.141 |
| COc1ccc(C=O)c(OCc2cn([C@@H]3C[C@H]4CC[C@@H](C3)N4C)nn2)c1 [13t] | 0.026 |
| C[N+]1(C)[C@@H]2CC[C@H]1C[C@H](n1cc(-c3cc(C(F)(F)F)cc(C(F)(F)F)c3)nn1)C2 [17q] | 0.13 |
| CC(=O)c1c(OCc2cn([C@@H]3C[C@H]4CC[C@@H](C3)[N+]4(C)C)nn2)ccc2ccccc12 [22q] | 0.16 |

Note Ki for the molecule shown: Cc1cc(C)nc(SCCCc2cn([C@@H]3C[C@H]4CC[C@@H](C3)N4C)nn2)n1 [21t]
0.3

Note Ki for the molecule shown: O=c1cc(OCc2cnnn2CC[N+]23CCC(CC2)CC3)c2ccccc2[nH]1
0.024

* * *

# measured on: Neuronal acetylcholine receptor subunit alpha-7 (Homo sapiens, UniProt P36544)
# Sequence (P36544 whole entry): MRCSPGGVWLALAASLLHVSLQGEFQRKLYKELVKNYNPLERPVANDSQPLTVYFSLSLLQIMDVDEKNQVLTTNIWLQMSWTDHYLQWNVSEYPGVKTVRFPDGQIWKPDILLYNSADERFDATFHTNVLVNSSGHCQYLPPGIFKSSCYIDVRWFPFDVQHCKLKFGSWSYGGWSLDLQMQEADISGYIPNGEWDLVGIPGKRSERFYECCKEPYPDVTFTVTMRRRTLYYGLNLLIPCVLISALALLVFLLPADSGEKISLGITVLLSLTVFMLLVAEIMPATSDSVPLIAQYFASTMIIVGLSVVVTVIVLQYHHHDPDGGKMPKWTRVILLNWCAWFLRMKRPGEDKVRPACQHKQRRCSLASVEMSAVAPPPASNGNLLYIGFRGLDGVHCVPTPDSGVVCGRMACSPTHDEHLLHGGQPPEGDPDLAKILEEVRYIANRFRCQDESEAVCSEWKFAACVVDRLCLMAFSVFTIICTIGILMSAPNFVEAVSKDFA
# protocol text: Synthesizing Selective Agonists for the ?7 Nicotinic Receptor with in situ Click-Chemistry on Acetylcholine Binding Protein Templates.
# condition parameters: pH 7.4; 37 °C
Consider the following molecules and their measured EC50 readings.
Please state the figure in µM; there is no need to write the unit.

Note EC50 for the molecule shown: Cn1c(=O)cc(OCc2cn(CCC[N+]3(C)CCCC3)nn2)c2ccccc21
0.8

Note EC50 for the molecule shown: CN1[C@@H]2CC[C@H]1C[C@H](n1cc(C3(O)c4ccccc4-c4ccccc43)nn1)C2 [20t]
12

Note EC50 for the molecule shown: COc1ccc(C=O)c(OCc2cn([C@@H]3C[C@H]4CC[C@@H](C3)[N+]4(C)C)nn2)c1 [13q]
0.8

Note EC50 for the molecule shown: COc1cc(C=O)ccc1OCc1cn([C@@H]2C[C@H]3CC[C@@H](C2)[N+]3(C)C)nn1
1

Note EC50 for the molecule shown: C[N+](C)(C)CCn1cc(COc2cc([O])nc3ccccc23)nn1
1.7

Note EC50 for the molecule shown: CC(=O)c1c(OCc2cn([C@@H]3C[C@H]4CC[C@@H](C3)N4C)nn2)ccc2ccccc12 [22t]
9

Note EC50 for the molecule shown: C[N+]1(C)[C@@H]2CC[C@H]1C[C@H](n1cc(CNC(=O)c3ccco3)nn1)C2 [12q]
3

Note EC50 for the molecule shown: O=c1cc(OCc2cnnn2CC[N+]23CCC(CC2)CC3)c2ccccc2[nH]1
2.9

* * *

# measured on: Neuronal acetylcholine receptor subunit alpha-7 (Homo sapiens)
# protocol text: Synthesizing Selective Agonists for the ?7 Nicotinic Receptor with in situ Click-Chemistry on Acetylcholine Binding Protein Templates.
# condition parameters: pH 7.4; 37 °C
reported endpoint: EC50

Note EC50 for the compound shown: CC(=O)NCc1cn([C@@H]2C[C@H]3CC[C@@H](C2)[N+]3(C)C)nn1 [10q]
5 µM

* * *

# measured on: Neuronal acetylcholine receptor subunit alpha-4 (Homo sapiens)
# Sequence (P43681 whole entry): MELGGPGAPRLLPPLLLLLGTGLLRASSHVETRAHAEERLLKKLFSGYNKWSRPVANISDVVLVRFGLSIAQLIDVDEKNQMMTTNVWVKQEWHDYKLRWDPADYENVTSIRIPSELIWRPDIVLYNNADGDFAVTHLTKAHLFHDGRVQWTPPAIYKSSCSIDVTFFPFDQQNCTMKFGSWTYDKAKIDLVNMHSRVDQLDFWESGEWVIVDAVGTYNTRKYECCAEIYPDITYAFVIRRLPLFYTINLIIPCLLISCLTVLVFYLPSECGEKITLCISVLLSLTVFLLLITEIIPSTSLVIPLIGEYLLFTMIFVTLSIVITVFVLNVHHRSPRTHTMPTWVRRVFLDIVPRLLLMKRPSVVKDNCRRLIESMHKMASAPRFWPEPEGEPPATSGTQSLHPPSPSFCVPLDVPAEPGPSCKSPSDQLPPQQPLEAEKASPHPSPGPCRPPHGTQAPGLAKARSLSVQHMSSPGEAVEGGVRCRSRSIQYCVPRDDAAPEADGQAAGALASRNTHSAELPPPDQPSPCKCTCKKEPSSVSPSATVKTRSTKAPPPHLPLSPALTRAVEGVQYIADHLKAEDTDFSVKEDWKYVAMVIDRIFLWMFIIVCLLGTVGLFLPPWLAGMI
# protocol text: Synthesizing Selective Agonists for the ?7 Nicotinic Receptor with in situ Click-Chemistry on Acetylcholine Binding Protein Templates.
# condition parameters: pH 7.4; 37 °C
# Protocol: Assay Description 2 Assays used to generate Ki or EC50 values. […] Solutions were each counted for 1 min on either a Beckman LS 6500 liquid scintillation counter or Wallac 1450 Microbeta Trilux. […] Competition curves and direct binding were measured following the protocol p
Values of Ki strictly less than 10 µM map to true (1), and values of at least 10 µM map to false (0).

Answered cases to consult:
| molecule | answer label |
| --- | --- |
| CC(=O)NCc1cn([C@@H]2C[C@H]3CC[C@@H](C2)[N+]3(C)C)nn1 [10q] | false (0) |
| CCC[N+](C)(C)CCn1nncc1COc1cc(=O)n(C)c2ccccc12 | false (0) |
| CN1[C@@H]2CC[C@H]1C[C@H](n1cc(CSc3nc4ccccc4s3)nn1)C2 [15t] | false (0) |
| CN1[C@@H]2CC[C@H]1C[C@H](n1cc(C3(O)c4ccccc4-c4ccccc43)nn1)C2 [20t] | false (0) |
| C[N+]1(C)[C@@H]2CC[C@H]1C[C@H](n1cc(-c3cc(C(F)(F)F)cc(C(F)(F)F)c3)nn1)C2 [17q] | true (1) |

Is Ki of CN1[C@@H]2CC[C@H]1C[C@H](n1cc(COc3cc(=O)n(C)c4ccccc34)nn1)C2 strictly below 10 µM?
false (0)

Is Ki of Cn1c(=O)cc(OCc2cn([C@@H]3C[C@H]4CC[C@@H](C3)[N+]4(C)C)nn2)c2ccccc21 strictly below 10 µM?
true (1)

Is Ki of Cc1cc(C)nc(SCCCc2cn([C@@H]3C[C@H]4CC[C@@H](C3)N4C)nn2)n1 [21t] strictly below 10 µM?
false (0)

Is Ki of C[N+](C)(C)CCn1cc(COc2cc([O])nc3ccccc23)nn1 strictly below 10 µM?
false (0)

Is Ki of CC(=O)NCc1cn([C@@H]2C[C@H]3CC[C@@H](C2)N3C)nn1 [10t] strictly below 10 µM?
false (0)

Is Ki of C[N+]1(C)[C@@H]2CC[C@H]1C[C@H](n1cc(CSc3nc4ccccc4s3)nn1)C2 [15q] strictly below 10 µM?
true (1)

Is Ki of CC(=O)c1c(OCc2cn([C@@H]3C[C@H]4CC[C@@H](C3)N4C)nn2)ccc2ccccc12 [22t] strictly below 10 µM?
false (0)

Is Ki of CN1[C@@H]2CC[C@H]1C[C@H](n1cc(CNC(=O)c3ccco3)nn1)C2 [12t] strictly below 10 µM?
false (0)
